Measured IC50 by item
Tested on: L1210
Experimental protocol: Inhibitory concentration required to reduce cell growth of Murine Leukemia L1210 cells
Format: functional
Test settings: Mus musculus, read-out: ID50 (the source's name)

>>> df
                smiles_input  readout_name           val
0    CN(C)c1ncnc2c1ncn2COCCO          IC50   > 500 µg/mL
1      OCCOCn1cnc2c(O)ncnc21          IC50  > 1000 µg/mL
2  O=c1[nH]c(=O)n(COCCO)cc1I          IC50  > 1000 µg/mL

So what's the measured IC50 for this one? CN(C)c1nc2c(=O)[nH]c(N)nc2n1COCCO > 500 µg/mL

So what's the measured IC50 for this one? CC(=O)OCCOCn1cc(/C=C/Br)c(=O)[nH]c1=O > 1000 µg/mL

So what's the measured IC50 for this one? O=c1cc(O)ccn1COCCO > 1000 µg/mL

So what's the measured IC50 for this one? Nc1nc(O)c2nc(N3CCCCC3)n(COCCO)c2n1 > 500 µg/mL

So what's the measured IC50 for this one? Cc1cn(COCCO)c(=O)[nH]c1=O > 1000 µg/mL

So what's the measured IC50 for this one? O=c1[nH]c(=O)n(COCCO)cc1F > 1000 µg/mL

----------
Experimental protocol: Ratio of ID50 for dThd or dUrd incorporation to ID50 for HSV-1, HSV-2 or VV(whatever was lowest)
Type: functional
Readout name: Antiviral index

In [3]: df
Out[3]:
                smiles_input    val
0  Cc1nc2c(O)nc(N)nc2n1COCCO  > 800
1    CN(C)c1ncnc2c1ncn2COCCO  < 0.9

So what's the measured Antiviral index for this one? Nc1ccn(COCCO)c(=O)n1 > 5
